System: SK-MEL-2 melanoma
Assay Procedure: NCI tumour cell line growth inhibition, 48 h
Experimental Readout: TGI

Past entries and their recorded results:
Molecule	Measurement
COc1ccc(/C=C2/NC(=S)N=C2Cl)cc1	> 100 µM
C=C1C2CC(OC(C)=O)C3(C)C(c4ccoc4)OC(=O)[C@@H](O)[C@]13OC1C[C@H](OC(C)=O)C(C)(C)[C@H](CC(=O)OC)[C@]12C (stereo not given in full)	> 100 µM
N#Cc1c(O)cc(=O)n2c1[nH]c1ccccc12	> 100 µM
Cc1ccc(NC(=S)SCCC(=O)O)cc1	> 100 µM
O=c1oc2ccc(Cl)cc2cc1-c1cn2ccccc2n1	> 100 µM

--- query ---
Note to self: TGI recorded for Cc1ccc(C(O)(c2ccc(C)cc2)c2ccccn2)cc1 was > 100 µM
